Test: DSC and TGA tests
Format: physicochemical
Details: onset temperature
reported_property: TGA: starting to lose the acid

# molecule, reported_property, measured_result
data = [
    ("CC(C)n1c(Nc2cccnc2)nc2cnc(Nc3ccc(N4CCN(C)CC4)cc3)nc21 [Example 9]", "TGA: starting to lose the acid", "~170 °C (see FIG. 29)"),
    ("CC(C)n1c(Nc2cccnc2)nc2cnc(Nc3ccc(N4CCN(C)CC4)cc3)nc21 [Example 4]", "TGA: starting to lose the acid", "~220 °C (see FIG. 23)"),
    ("CC(C)n1c(Nc2cccnc2)nc2cnc(Nc3ccc(N4CCN(C)CC4)cc3)nc21 [Example 6]", "TGA: starting to lose the acid", "~170 °C (see FIG. 26)"),
]

Item CC(C)n1c(Nc2cccnc2)nc2cnc(Nc3ccc(N4CCN(C)CC4)cc3)nc21 [Example 1] has what recorded TGA: starting to lose the acid?
~140 °C (see FIG. 19)

Name the reported TGA: starting to lose the acid value associated with the molecule CC(C)n1c(Nc2cccnc2)nc2cnc(Nc3ccc(N4CCN(C)CC4)cc3)nc21 [Example 10]
~170 °C (see FIG. 30)

Which measured TGA: starting to lose the acid value corresponds to CC(C)n1c(Nc2cccnc2)nc2cnc(Nc3ccc(N4CCN(C)CC4)cc3)nc21 [Example 8] ?
~180 °C (see FIG. 28)

Which TGA: starting to lose the acid is reported for this molecule? CC(C)n1c(Nc2cccnc2)nc2cnc(Nc3ccc(N4CCN(C)CC4)cc3)nc21 [Example 16]
~240 °C (See FIG. 40)

Look at this molecule and give its reported TGA: starting to lose the acid. CC(C)n1c(Nc2cccnc2)nc2cnc(Nc3ccc(N4CCN(C)CC4)cc3)nc21 [Example 5]
~190 °C (see FIG. 25)

Which TGA: starting to lose the acid is listed for CC(C)n1c(Nc2cccnc2)nc2cnc(Nc3ccc(N4CCN(C)CC4)cc3)nc21 [Example 17] ?
~210 °C (see FIG. 41)

Can you share its TGA: starting to lose the acid? I mean this molecule: CC(C)n1c(Nc2cccnc2)nc2cnc(Nc3ccc(N4CCN(C)CC4)cc3)nc21 [Example 7]
~180 °C (see FIG. 27)

Please report the recorded TGA: starting to lose the acid for CC(C)n1c(Nc2cccnc2)nc2cnc(Nc3ccc(N4CCN(C)CC4)cc3)nc21 [Example 11] .
~220 °C (see FIG. 31)

If you can, please state the reported TGA: starting to lose the acid value of CC(C)n1c(Nc2cccnc2)nc2cnc(Nc3ccc(N4CCN(C)CC4)cc3)nc21 [Example 12] .
~140 °C (see FIG. 33)

Report TGA: starting to lose the acid for CC(C)n1c(Nc2cccnc2)nc2cnc(Nc3ccc(N4CCN(C)CC4)cc3)nc21 [Example 15] please.
~80 °C (see FIG. 39)
